- Tested on: 967376-340-R-J2-PDC multicell spheroid viability
- MEASUREMENT_NOTES: Anticancer human tumor 967376-340-R-J2-PDC patient-derived colon adenocarcinoma cell line growth inhibition [PI3K]
- CONDITION_DESCRIPTION: second compound 0.1 µM; first compound 0.316 µM; stronger effect = lower value
Note to self: viability, T/C under 90% means rule met, ties and anything higher get rule not met.

Example cases with answers are listed next.
| MOLECULE | TARGET | CATEGORY_LABEL |
| --- | --- | --- |
| C=CC(=O)N1CCN(c2nc(=O)n(-c3c(C)ccnc3C(C)C)c3nc(-c4c(O)cccc4F)c(F)cc23)C(C)C1 (stereo unspecified) + CC(Nc1ncnc2nc[nH]c12)c1cc2cccc(Cl)c2c(=O)n1-c1ccccc1 | 967376-340-R-J2-PDC multicell spheroid viability | rule not met |
| Cn1nccc1Nc1nccc(-c2ccn(C(CO)c3ccc(Cl)c(F)c3)c(=O)c2)n1 (stereo unspecified) + CC(Nc1ncnc2nc[nH]c12)c1cc2cccc(Cl)c2c(=O)n1-c1ccccc1 | 967376-340-R-J2-PDC multicell spheroid viability | rule not met |
| CC(C)NCC(C(=O)N1CCN(c2ncnc3c2C(C)CC3O)CC1)c1ccc(Cl)cc1 (stereo unspecified) + CC(Nc1ncnc2nc[nH]c12)c1cc2cccc(Cl)c2c(=O)n1-c1ccccc1 | 967376-340-R-J2-PDC multicell spheroid viability | rule met |
| CC1(C)CCC(CN2CCN(c3ccc(C(=O)NS(=O)(=O)c4ccc(NCC5CCOCC5)c([N+](=O)[O-])c4)c(Oc4cnc5[nH]ccc5c4)c3)CC2)=C(c2ccc(Cl)cc2)C1 + Cc1nc(NC(=O)N2CCCC2C(N)=O)sc1-c1ccnc(C(C)(C)C(F)(F)F)c1 | 967376-340-R-J2-PDC multicell spheroid viability | rule met |

Now look at this one.
Data request: State whether 90% exceeds viability, T/C recorded for C[C@@H](NC(=O)c1ncnc(N)c1Cl)c1ncc(C(=O)Nc2cc(C(F)(F)F)c(Cl)cn2)s1 + COc1c(OCCCN2CCOCC2)ccc2c3n(c(=NC(=O)c4cnc(N)nc4)nc12)CCN3 .
Data returned: rule met

----------
The following molecules are listed with their measured viability, T/C values.
- Test system: 967376-340-R-J2-PDC multicell spheroid viability
- MEASUREMENT_NOTES: Anticancer human tumor 967376-340-R-J2-PDC cell line growth inhibition [PI3K];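 note: luminescence used as surrogate of cell viability; spheroids exposed to agents for 7 days before read-out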
- CONDITION_DESCRIPTION: second compound 0.00316 µM; first compound 0.0316 µM; stronger effect = lower value
Entry rule: numbers only, all in %.

# annotated cases, reported viability, T/C shown
| MOLECULE | UNIT_INFO | viability, T/C |
| --- | --- | --- |
| Cn1ncnc1[C@H]1c2n[nH]c(=O)c3cc(F)cc(c23)N[C@@H]1c1ccc(F)cc1 + COc1c(OCCCN2CCOCC2)ccc2c3n(c(=NC(=O)c4cnc(N)nc4)nc12)CCN3 | % | 88.7 |
| CNC(=O)c1ccc(N2C(=S)N(c3ccc(C#N)c(C(F)(F)F)c3)C(=O)C2(C)C)cc1F + COc1c(OCCCN2CCOCC2)ccc2c3n(c(=NC(=O)c4cnc(N)nc4)nc12)CCN3 | % | 92 |
| CC1(C)CCC(CN2CCN(c3ccc(C(=O)NS(=O)(=O)c4ccc(NCC5CCOCC5)c([N+](=O)[O-])c4)c(Oc4cnc5[nH]ccc5c4)c3)CC2)=C(c2ccc(Cl)cc2)C1 + COc1c(OCCCN2CCOCC2)ccc2c3n(c(=NC(=O)c4cnc(N)nc4)nc12)CCN3 | % | 92.6 |

Lookup result for CNC(=O)c1ccc(N2C(=S)N(c3ccc(C#N)c(C(F)(F)F)c3)C(=O)C2(C)C)cc1F + CC(Nc1ccc2c(c1)OCCn1cc(N3C(=O)OCC3C(F)F)nc1-2)C(N)=O ; measured viability, T/C: 90.3

Lookup result for CC(=O)c1c(C)c2cnc(Nc3ccc(N4CCNCC4)cn3)nc2n(C2CCCC2)c1=O + COc1c(OCCCN2CCOCC2)ccc2c3n(c(=NC(=O)c4cnc(N)nc4)nc12)CCN3 ; measured viability, T/C: 87.5

Lookup result for CCN1CCN(Cc2ccc(Nc3ncc(F)c(-c4cc(F)c5nc(C)n(C(C)C)c5c4)n3)nc2)CC1 + COc1c(OCCCN2CCOCC2)ccc2c3n(c(=NC(=O)c4cnc(N)nc4)nc12)CCN3 ; measured viability, T/C: 87.6

----------
- Tested on: 967376-340-R-J2-PDC multicell spheroid viability
- MEASUREMENT_NOTES: Anticancer human tumor 967376-340-R-J2-PDC cell line growth inhibition [PI3K];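 note: luminescence used as surrogate of cell viability; spheroids exposed to agents for 7 days before read-out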
- CONDITION_DESCRIPTION: second compound 0.0316 µM; first compound 0.0316 µM; stronger effect = lower value
The following compounds are listed with their measured viability, T/C values.
Entry rule: numbers only, all in %.

# annotated cases, reported viability, T/C shown
| COMPOUND | TEST_VALUE |
| --- | --- |
| C#Cc1c(F)ccc2cc(O)cc(-c3ncc4c(N5CC6CCC(C5)N6)nc(OCC56CCCN5CC(F)C6)nc4c3F)c12 (stereo not drawn) + CC(Nc1ncnc2nc[nH]c12)c1cc2cccc(Cl)c2c(=O)n1-c1ccccc1 | 103 |
| CC(C)NCC(C(=O)N1CCN(c2ncnc3c2C(C)CC3O)CC1)c1ccc(Cl)cc1 (stereo not drawn) + COc1c(OCCCN2CCOCC2)ccc2c3n(c(=NC(=O)c4cnc(N)nc4)nc12)CCN3 | 78.8 |

For the next question, use this compound.
Lookup result for CC1(C)CCC(Nc2ncc(C(F)(F)F)c(-c3c[nH]c4c(P(C)(C)=O)c(C#N)ccc34)n2)CN1 (stereo not drawn) + Cc1nc(NC(=O)N2CCCC2C(N)=O)sc1-c1ccnc(C(C)(C)C(F)(F)F)c1 ; measured viability, T/C: 82.8
